Field: binding to HLA-A2.1 (column 3; no allele head shown for these rows). Provide a value for each of the sequences that follow.
- subject_of_test: HLA-A*0201 (HLA-A2.1) (Homo sapiens, UniProt P04439, D140Y/D185E/D98H/E176V/E277Q/G131W/G231S/I119V/I121R/I166T/I218V/L300P/L318F/N151K/N90K/P208A/P217A/Q86G/Q94H/R138H/R169H/T345S)
- method_description: biochemical
- Assay type: binding
Answers are plain numbers.

Look over these answered cases.
sequence_data: PTGHSYVLV
reported_value: 0

sequence_data: DLESEFQAAISRKMV
reported_value: 0

sequence_data: IIVLVMIAM
reported_value: 0.0007

sequence_data: GVQGPSLKPAM
reported_value: 0

sequence_data: KVADLVGFLL
reported_value: 0.041

sequence_data: RAREPVTKA
reported_value: 0

sequence_data: KAEMLESVI
reported_value: 0

sequence_data: KASEYLQLV
reported_value: 0.011

Give binding to HLA-A2.1 (column 3; no allele head shown for these rows) for all sequences that follow.
1. EALGLVCVQA
2. GLVCVQAAT

1. 0.0005
2. 0.0007
